target: wild-type human cardiac sodium channel, hNav1.5 (Homo sapiens, UniProt Q14524); assay: Late INa screening assay (automated whole cell patch clamp, PatchXpress); format: cell-based; details: compound at 1 μM; HEK293 cells expressing hNav1.5; late INa generated with 10 μM Tefluthrin (or 50 nM ATX II); read-out: LateINa_1 uM (percent block of late INa)
Sequence (Q14524 whole entry): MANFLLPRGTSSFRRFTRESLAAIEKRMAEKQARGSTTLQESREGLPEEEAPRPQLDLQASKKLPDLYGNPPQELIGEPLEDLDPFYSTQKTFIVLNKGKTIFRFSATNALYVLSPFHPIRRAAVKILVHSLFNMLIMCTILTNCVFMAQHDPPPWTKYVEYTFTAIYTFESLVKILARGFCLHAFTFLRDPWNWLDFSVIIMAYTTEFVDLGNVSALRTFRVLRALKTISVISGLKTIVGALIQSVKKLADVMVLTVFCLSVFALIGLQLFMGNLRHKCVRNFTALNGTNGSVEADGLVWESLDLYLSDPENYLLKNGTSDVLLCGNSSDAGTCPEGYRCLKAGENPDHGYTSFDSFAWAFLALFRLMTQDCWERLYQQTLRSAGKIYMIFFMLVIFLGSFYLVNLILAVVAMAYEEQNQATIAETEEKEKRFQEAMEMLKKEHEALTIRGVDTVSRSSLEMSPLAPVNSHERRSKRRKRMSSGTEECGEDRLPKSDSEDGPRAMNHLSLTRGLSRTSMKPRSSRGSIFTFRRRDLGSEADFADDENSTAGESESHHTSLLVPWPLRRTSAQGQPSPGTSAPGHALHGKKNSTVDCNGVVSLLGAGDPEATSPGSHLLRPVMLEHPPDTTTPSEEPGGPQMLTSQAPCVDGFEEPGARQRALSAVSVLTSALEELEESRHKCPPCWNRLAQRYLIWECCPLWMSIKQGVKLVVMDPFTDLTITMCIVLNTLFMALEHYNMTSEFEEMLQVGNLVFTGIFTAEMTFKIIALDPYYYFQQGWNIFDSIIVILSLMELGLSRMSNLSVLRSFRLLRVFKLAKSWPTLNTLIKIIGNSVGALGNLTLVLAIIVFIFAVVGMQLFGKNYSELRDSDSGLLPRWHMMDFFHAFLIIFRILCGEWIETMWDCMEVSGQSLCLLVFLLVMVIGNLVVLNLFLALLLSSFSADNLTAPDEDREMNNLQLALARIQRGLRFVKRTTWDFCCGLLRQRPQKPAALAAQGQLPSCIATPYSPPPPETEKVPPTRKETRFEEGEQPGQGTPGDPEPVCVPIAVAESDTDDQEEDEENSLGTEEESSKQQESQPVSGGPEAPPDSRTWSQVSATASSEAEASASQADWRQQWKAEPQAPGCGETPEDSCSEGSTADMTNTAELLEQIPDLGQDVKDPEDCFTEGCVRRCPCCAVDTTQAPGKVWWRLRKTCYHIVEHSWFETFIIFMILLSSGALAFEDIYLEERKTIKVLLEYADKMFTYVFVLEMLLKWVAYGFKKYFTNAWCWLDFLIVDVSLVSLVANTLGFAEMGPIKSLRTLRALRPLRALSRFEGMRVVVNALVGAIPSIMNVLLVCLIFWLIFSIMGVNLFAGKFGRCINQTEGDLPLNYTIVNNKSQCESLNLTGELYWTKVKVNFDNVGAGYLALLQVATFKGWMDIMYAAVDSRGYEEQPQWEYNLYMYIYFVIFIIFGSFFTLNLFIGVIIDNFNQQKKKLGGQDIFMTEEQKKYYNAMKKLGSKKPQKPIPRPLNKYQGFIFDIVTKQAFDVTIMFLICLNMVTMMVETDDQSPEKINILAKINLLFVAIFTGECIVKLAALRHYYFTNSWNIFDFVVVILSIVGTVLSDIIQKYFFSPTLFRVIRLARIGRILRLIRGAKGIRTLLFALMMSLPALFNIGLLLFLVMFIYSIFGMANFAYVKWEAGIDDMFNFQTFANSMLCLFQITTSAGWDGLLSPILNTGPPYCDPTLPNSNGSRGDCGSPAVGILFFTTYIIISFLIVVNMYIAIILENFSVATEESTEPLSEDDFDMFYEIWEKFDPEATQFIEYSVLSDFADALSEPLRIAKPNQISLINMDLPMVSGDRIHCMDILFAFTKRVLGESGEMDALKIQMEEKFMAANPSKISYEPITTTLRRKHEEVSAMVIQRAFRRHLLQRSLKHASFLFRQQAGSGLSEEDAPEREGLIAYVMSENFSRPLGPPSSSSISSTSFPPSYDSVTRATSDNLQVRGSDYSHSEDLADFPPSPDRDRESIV
Recorded inhibition at 1 µM by entry

| smiles.str | inhibition at 1 µM / % |
| --- | --- |
| Clc1ccc(Oc2ccc(-c3ccc4nnnn4n3)cc2)cc1 | 21.7 |
| CC(C)(C#N)c1ccc(-c2ccc3nnc(C(F)(F)F)n3c2)cc1 | 33.2 |
| N#CCOc1cc(OC(F)(F)F)ccc1-c1ccc2nnc(C(F)(F)F)n2c1 | 18.7 |
| Cc1cc(OC(F)(F)F)ccc1-c1ccc2nnc(C(F)(F)F)n2n1 | 64.4 |
| FC(F)(F)Oc1ccc(-c2ccc3nnc(C(F)(F)OCc4cc(-c5ccccc5Cl)on4)n3c2)cc1 | 52.4 |
| FC(F)(F)Oc1ccc(-c2ccc3nnc(C(F)(F)CCl)n3c2)cc1 | 62 |
| FC(F)(F)Oc1ccc(-c2ccc3nnc(C(F)(F)COCc4ccccn4)n3c2)cc1 | 30.7 |
| OCC(F)(F)c1nnc2ccc(-c3ccc(Oc4ccccc4)cc3)cn12 | 29 |
| FC(F)(F)Oc1ccc(-c2ccc3nnc(-c4ccccc4)n3c2)cc1 | 65.2 |
| COCCOC(F)(F)c1nnc2ccc(-c3ccc(OC(F)(F)F)cc3)cn12 | 32.5 |
| CC(C)(C)OC(=O)N1CCC[C@H]1COC(F)(F)c1nnc2ccc(-c3ccc(OC(F)(F)F)cc3)cn12 | 62.6 |
| FC(F)(F)Oc1ccc(-c2ccc3nnc(C(F)(F)OCC4CC4)n3c2)cc1 | 80.8 |
| Cc1cc(OC(F)(F)F)ccc1-c1ccc2nnc(C(C)C)n2n1 | 59.2 |

----------
molecular target: wild-type human cardiac sodium channel, hNav1.5 (Homo sapiens); assay: Late INa screening assay (automated whole cell patch clamp, PatchXpress); format: cell-based; conditions: compound at 1 μM; HEK293 cells expressing hNav1.5; late INa generated with 10 μM Tefluthrin (or 50 nM ATX II); read-out: LateINa_1 uM (percent block of late INa)
Parameter: inhibition at 1 µM. Scope: all listed entries.
reported.metric: inhibition at 1 µM (%)

| compound | tgt | reported.metric | measured.number |
| --- | --- | --- | --- |
| N#Cc1nc(C(F)(F)F)n2cc(-c3ccc(OC(F)(F)F)cc3)ccc12 | wild-type human cardiac sodium channel, hNav1.5 (Homo sapiens) | inhibition at 1 µM | 66.3 |
| COCC(F)(F)c1nnc2ccc(C#Cc3ccccc3)cn12 | wild-type human cardiac sodium channel, hNav1.5 (Homo sapiens) | inhibition at 1 µM | 31 |
| CN(c1ccccc1)c1ccc(-c2ccc3nnc(C(F)(F)F)n3c2)cc1 | wild-type human cardiac sodium channel, hNav1.5 (Homo sapiens) | inhibition at 1 µM | 54.2 |
| Cc1c(-c2ccc(OC(F)(F)F)cc2)ccc2nnc(C(F)(F)F)n12 | wild-type human cardiac sodium channel, hNav1.5 (Homo sapiens) | inhibition at 1 µM | 74.2 |
| FC(F)(F)c1ccc(-c2ccc3nnc(C(F)(F)F)n3c2)c(C(F)(F)F)c1 | wild-type human cardiac sodium channel, hNav1.5 (Homo sapiens) | inhibition at 1 µM | 20.6 |
| FC(F)(F)Oc1ccc(-c2ccc3nnc(COCC4CC4)n3c2)cc1 | wild-type human cardiac sodium channel, hNav1.5 (Homo sapiens) | inhibition at 1 µM | 65.6 |
| COc1ccccc1SCC(C)COC(F)(F)c1nnc2ccc(-c3ccc(OC(F)(F)F)cc3)cn12 (stereo not drawn) | wild-type human cardiac sodium channel, hNav1.5 (Homo sapiens) | inhibition at 1 µM | 47.8 |
| Fc1cc(OC(F)(F)F)ccc1-c1ccc2nnc(C(F)(F)F)n2c1 | wild-type human cardiac sodium channel, hNav1.5 (Homo sapiens) | inhibition at 1 µM | 55.3 |
| COCC(F)(F)c1nnc2ccc(-c3ccc(OC(F)(F)F)cc3)cn12 | wild-type human cardiac sodium channel, hNav1.5 (Homo sapiens) | inhibition at 1 µM | 46.9 |

----------
biological target: wild-type human cardiac sodium channel, hNav1.5 (Homo sapiens); assay: Late INa screening assay (automated whole cell patch clamp, PatchXpress); type: cell-based; settings: compound at 10 μM; HEK293 cells expressing hNav1.5; late INa generated with 10 μM Tefluthrin (or 50 nM ATX II); read-out: LateINa_10 uM (percent block of late INa)
Overview of recorded inhibition at 10 µM for various compounds
reported.metric: inhibition at 10 µM (%)

| compound | reported.metric | measured.number |
| --- | --- | --- |
| Cc1cc(OC(F)(F)F)ccc1-c1ccc2nnc(-c3ccc(C#N)cc3)n2n1 [BHN-41] | inhibition at 10 µM | 59.1 |
| N#Cc1ccc(-c2nnc3ccc(-c4ccc(Oc5ccccc5)cc4)nn23)cc1 [BHN-40] | inhibition at 10 µM | 38.2 |
| COCC(F)(F)c1nnc2ccc(-c3ccc(OC(F)(F)F)cc3)cn12 [BHN-74] | inhibition at 10 µM | 67 |
| FC(F)(F)c1nnc2ccc(-c3ccc(-c4ccccc4)cc3)cn12 [BHN-57] | inhibition at 10 µM | 39.5 |
| Cc1cc(OC(F)(F)F)ccc1-c1cc(N)c2nnc(C)n2c1 [BHN-70] | inhibition at 10 µM | 40.4 |
| FC(F)(F)Oc1ccc(-c2ccc3nnc(C(F)(F)F)n3c2)cc1CN1CCOCC1 [BHN-72] | inhibition at 10 µM | 26.7 |
| NC(=O)c1ccc(-c2nnc3ccc(-c4ccc(OC(F)(F)F)cc4)cn23)cc1 [BHN-79] | inhibition at 10 µM | 19.3 |
| CC(C)(C)c1nnc2ccc(-c3ccc(OCC(F)(F)F)cc3)nn12 [BHN-36] | inhibition at 10 µM | 64.5 |
| CC(C)S(=O)(=O)c1ccc(-c2ccc3nnc(C(F)(F)F)n3c2)cc1 [BHN-68] | inhibition at 10 µM | 22 |
| N#Cc1cccc(-c2nnc3ccc(-c4ccc(F)cc4)nn23)c1 [BHN-51] | inhibition at 10 µM | 40.5 |
| COc1ccc(-c2ccc3cnc(C(F)(F)F)n3c2)cc1 [BHN-30] | inhibition at 10 µM | 77.3 |
| c1ccc(Oc2ccc(-c3ccc4nnc(-c5ccc(-c6nn[nH]n6)cc5)n4n3)cc2)cc1 [BHN-50] | inhibition at 10 µM | 31 |

----------
molecular target: UniProt Q14524; test: Late INa screening assay (automated whole cell patch clamp, PatchXpress); type: cell-based; settings: compound at 10 μM; HEK293 cells expressing hNav1.5; late INa generated with 10 μM Tefluthrin (or 50 nM ATX II); read-out: LateINa_10 uM (percent block of late INa)

| smiles.str | unit.of.measurement | inhibition at 10 µM |
| --- | --- | --- |
| COc1ccc(-c2ccc3nnc(-c4cccc(C#N)c4)n3n2)cc1 | % | 36.3 |
| c1ccc(Oc2ccc(-c3ccc4nncn4n3)cc2)cc1 | % | 59 |
| Fc1ccc(Oc2ccc(-c3ccc4nnc(C(F)(F)F)n4c3)cc2)cc1 | % | 69.6 |
| FC(F)(F)c1nnc2cnc(-c3ccc(Oc4ccccc4)cc3)cn12 | % | 54.3 |

----------
Quick reference for inhibition at 1 µM among some molecules
biological target: wild-type human cardiac sodium channel, hNav1.5 (Homo sapiens); assay: Late INa screening assay (automated whole cell patch clamp, PatchXpress); type: cell-based; details: compound at 1 μM; HEK293 cells expressing hNav1.5; late INa generated with 10 μM Tefluthrin (or 50 nM ATX II); read-out: LateINa_1 uM (percent block of late INa)
reported.metric: inhibition at 1 µM (%)

| molecule | tgt | reported.metric | measured.number |
| --- | --- | --- | --- |
| N#CC1(c2ccc(-c3ccc4nnc(C(F)(F)F)n4c3)cc2)CC1 [BHN-195] | wild-type human cardiac sodium channel, hNav1.5 (Homo sapiens) | inhibition at 1 µM | 47.3 |
| FC(F)(F)c1ccc(-c2ccc3nnc(C(F)(F)OCc4cc(-c5ccccc5)on4)n3c2)cn1 [BHN-319] | wild-type human cardiac sodium channel, hNav1.5 (Homo sapiens) | inhibition at 1 µM | 30.5 |
| COCC(F)(F)c1nnc2ccc(-c3ccc(OC(F)(F)F)c(C)c3)cn12 [BHN-188] | wild-type human cardiac sodium channel, hNav1.5 (Homo sapiens) | inhibition at 1 µM | 41.3 |
| NC(=O)c1nnc2ccc(-c3ccc(OC(F)(F)F)cc3)cn12 [BHN-265] | wild-type human cardiac sodium channel, hNav1.5 (Homo sapiens) | inhibition at 1 µM | 15.3 |
| O=[N+]([O-])c1ccc(-c2ccc3nnc(C(F)(F)F)n3c2)c(Cl)c1 [BHN-292] | wild-type human cardiac sodium channel, hNav1.5 (Homo sapiens) | inhibition at 1 µM | 26 |
| FC(F)(F)Oc1ccc(-c2ccc3nnc(COCc4ccccc4)n3c2)cc1 [BHN-127] | wild-type human cardiac sodium channel, hNav1.5 (Homo sapiens) | inhibition at 1 µM | 93.2 |
| FC(F)(F)c1ncc2ccc(-c3ncco3)cn12 [BHN-183] | wild-type human cardiac sodium channel, hNav1.5 (Homo sapiens) | inhibition at 1 µM | 19.5 |
| FC(F)(F)Oc1ccc(-c2ccc3nnc(C(F)(F)F)n3c2)c(Br)c1 [BHN-124] | wild-type human cardiac sodium channel, hNav1.5 (Homo sapiens) | inhibition at 1 µM | 82 |
| CC(C)(O)COCC(F)(F)c1nnc2ccc(-c3ccc(OC(F)(F)F)cc3)cn12 [BHN-205] | wild-type human cardiac sodium channel, hNav1.5 (Homo sapiens) | inhibition at 1 µM | 25.2 |
